assayed target: T1, RBFOX1 RRM (Homo sapiens, UniProt Q9NWB1 109-208)
T1 sequence: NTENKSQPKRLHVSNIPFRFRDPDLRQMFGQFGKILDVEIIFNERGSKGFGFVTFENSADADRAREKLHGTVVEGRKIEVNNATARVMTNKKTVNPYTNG
test protocol: EMSA; HiTS-Eq, 1 nM pool, 10 min; buffer printed only for the single-RNA assays: 10 mM Tris pH 7.5, 150 mM NaCl, 3.4 mM EDTA, 0.001% NP-40, 30 C
condition details: tags: His6 N-terminal (pET28a); label: 5' 32P
In all, about 16,000 sequences were measured (“ka relative to ugcaugu”: median about 0.0091, highest 2% from about 0.032 on). For the sample, the highest values were picked, then their nearest neighbours and some sequences at random.
assay metric: binding signal

binder | result
CGGGUUU (DNA:RNA) RNA: GGGAGACCGGAAUUCAGAUUGUCCCGGGUUUUUAAAUCCCGUCGUAGCCACCA DNA 1: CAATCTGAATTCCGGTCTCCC DNA 2: TGGTGGCTACGACGGGATT | 0.0393 KA relative to UGCAUGU
GUGCUCC (DNA:RNA) RNA: GGGAGACCGGAAUUCAGAUUGUCCGUGCUCCUUAAAUCCCGUCGUAGCCACCA DNA 1: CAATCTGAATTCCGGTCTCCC DNA 2: TGGTGGCTACGACGGGATT | 0.0357 KA relative to UGCAUGU
GUCGGGU (DNA:RNA) RNA: GGGAGACCGGAAUUCAGAUUGUCCGUCGGGUUUAAAUCCCGUCGUAGCCACCA DNA 1: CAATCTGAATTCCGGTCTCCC DNA 2: TGGTGGCTACGACGGGATT | 0.0137 KA relative to UGCAUGU
GGGUUGU (DNA:RNA) RNA: GGGAGACCGGAAUUCAGAUUGUCCGGGUUGUUUAAAUCCCGUCGUAGCCACCA DNA 1: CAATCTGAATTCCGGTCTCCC DNA 2: TGGTGGCTACGACGGGATT | 0.0284 KA relative to UGCAUGU
AGGUCUC (DNA:RNA) RNA: GGGAGACCGGAAUUCAGAUUGUCCAGGUCUCUUAAAUCCCGUCGUAGCCACCA DNA 1: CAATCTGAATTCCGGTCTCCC DNA 2: TGGTGGCTACGACGGGATT | 0.0131 KA relative to UGCAUGU

Every entry's value here was drawn from paper PMC9911399.
